meta.source: ChEMBL document CHEMBL1130581

Test system: Meloidogyne incognita
Experiment: Average percent inhibition of nematode pest Meloidogyne incognita induced root galling of treated sand medium at 0.5 ppm
Format: functional
Property: inhibition at 0.5 ppm
Returns: string containing the numeric result and its unit.

Some entries whose results are on file:
Compound: C=C1CC1CC(=O)O (stereo not drawn)
Target entity: Meloidogyne incognita
Obs value: 90%
--
Compound: C=C1CC1CC(N)=O (stereo not drawn)
Target entity: Meloidogyne incognita
Obs value: 0%
--
Compound: CC1CC1CC(=O)O (stereo not drawn)
Target entity: Meloidogyne incognita
Obs value: 0%
--
Compound: C=C1CC1CC(=O)OCc1cccc(Oc2ccccc2)c1 (stereo not drawn)
Target entity: Meloidogyne incognita
Obs value: 50%
--
Compound: C=C1CC1CCN (stereo not drawn)
Target entity: Meloidogyne incognita
Obs value: 25%
--
Compound: C=C1CC1CC(=O)OCCCCCCCCCCCCCCCC (stereo not drawn)
Target entity: Meloidogyne incognita
Obs value: 100%
--
Compound: C=C1CC1CCSC1=NCCS1 (stereo not drawn)
Target entity: Meloidogyne incognita
Obs value: 50%

Alright, here's another compound for you.
# input Find inhibition at 0.5 ppm (Meloidogyne incognita) for the entry C=C1CC1CCOC(=O)c1ccc(OCC)cc1 (stereo not drawn)
# output 100%
